Experiment: Solubilisation studies for antide: effect of pH (WFI, saline, acids)
Format: physicochemical
Conditions: phosphate buffered saline, aqueous buffer; read-out: solubility
Non-standard residues stand in square brackets, D forms with d. Residues, ends and D or L forms follow the SMILES beside them. *: point of attachment. dPhe(4-Cl) = N[C@H](Cc1ccc(Cl)cc1)C(=O)O; d2Nal = N[C@H](Cc1ccc2ccccc2c1)C(=O)O; Lys(iPr) = CC(C)NCCCC[C@H](N)C(=O)O; d3Pal = N[C@H](Cc1cccnc1)C(=O)O; Nicotinoyl = O=C(c1cccnc1)*
measure: Solubility (µg/mL)
# number only, unit µg/mL dropped from output

Recorded Solubility of CC(=O)N[C@H](Cc1ccc2ccccc2c1)C(=O)N[C@H](Cc1ccc(Cl)cc1)C(=O)N[C@H](Cc1cccnc1)C(=O)N[C@@H](CO)C(=O)N[C@@H](CCCCNC(=O)c1cccnc1)C(=O)N[C@H](CCCCNC(=O)c1cccnc1)C(=O)N[C@@H](CC(C)C)C(=O)N[C@@H](CCCCNC(C)C)C(=O)N1CCC[C@H]1C(=O)N[C@H](C)C(N)=O [antide] (Ac-[d2Nal][dPhe(4-Cl)][d3Pal]SK(Nicotinoyl)[dK](Nicotinoyl)L[Lys(iPr)]P[dA]-NH2) , please. 16

---

Test: Solubilisation studies for antide: effect of pH (WFI, saline, acids)
Assay type: physicochemical
Settings: water, without further acidification; read-out: solubility limit
Non-standard residues stand in square brackets, D forms with d. Residues, ends and D or L forms follow the SMILES beside them. *: point of attachment. dPhe(4-Cl) = N[C@H](Cc1ccc(Cl)cc1)C(=O)O; d2Nal = N[C@H](Cc1ccc2ccccc2c1)C(=O)O; Lys(iPr) = CC(C)NCCCC[C@H](N)C(=O)O; d3Pal = N[C@H](Cc1cccnc1)C(=O)O; Nicotinoyl = O=C(c1cccnc1)*
measure: solubility thermodynamic (µg/mL)
# number only, unit µg/mL dropped from output

Recorded solubility thermodynamic of CC(=O)N[C@H](Cc1ccc2ccccc2c1)C(=O)N[C@H](Cc1ccc(Cl)cc1)C(=O)N[C@H](Cc1cccnc1)C(=O)N[C@@H](CO)C(=O)N[C@@H](CCCCNC(=O)c1cccnc1)C(=O)N[C@H](CCCCNC(=O)c1cccnc1)C(=O)N[C@@H](CC(C)C)C(=O)N[C@@H](CCCCNC(C)C)C(=O)N1CCC[C@H]1C(=O)N[C@H](C)C(N)=O [antide] (Ac-[d2Nal][dPhe(4-Cl)][d3Pal]SK(Nicotinoyl)[dK](Nicotinoyl)L[Lys(iPr)]P[dA]-NH2) , please. 8100
